Cited source: the supplement of paper PMC12855868

# reported scaled log2 fold change; entries follow
B1: library; numbered along this chain (parent)
chain: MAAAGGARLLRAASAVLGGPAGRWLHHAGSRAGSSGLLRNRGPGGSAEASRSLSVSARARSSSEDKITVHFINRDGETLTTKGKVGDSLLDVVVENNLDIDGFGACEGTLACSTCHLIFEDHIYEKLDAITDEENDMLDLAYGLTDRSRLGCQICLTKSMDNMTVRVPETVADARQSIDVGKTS

variants of: B1; assay: scaled log2 fold change in cell abundance, elesclomol vs control (0 = silent mean, 1 = nonsense mean) (scaled log2 ratio); higher = higher viability under elesclomol (loss of FDX1 cuproptosis function); conditions: with HEK293T FDX1 KO; elesclomol 40 nM; glucose 10 mM; 11 days;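 further: variant abundance is its share of total variant reads in each endpoint sample, from next-generation sequencing of the integrated ORF PCR-amplified out of genomic DNA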
result.type: scaled log2 fold change

T157E ... -0.0584
L138C ... 0.251
Q153K ... 0.139
A141I ... 0.617
